System: NCI-H2023
Experiment: relative viability (nuclei count vs DMSO), 5 days (fraction); higher = more cells survive
Settings: first compound 0.253 µM
Grouping by measured relative viability is done with the following cut points: lower bin (below 0.4), middle bin (0.4 to below 0.8), upper bin (0.8 or more)

Worked examples, 5 molecules total:
>>> class_assignment("C=C1C(=O)O[C@@H](CCCCCCCC)[C@@H]1C(=O)O [C-75] + Cc1nc(NC(=O)N2CCC[C@H]2C(N)=O)sc1-c1ccnc(C(C)(C)C(F)(F)F)c1 [Alpelisib] (partner 2 µM)")
"middle bin"
>>> class_assignment("C=C1C(=O)O[C@@H](CCCCCCCC)[C@@H]1C(=O)O [C-75] + CCNC(=O)c1noc(-c2cc(C(C)C)c(O)cc2O)c1-c1ccc(CN2CCOCC2)cc1 [Luminespib] (partner 0.01 µM)")
"upper bin"
>>> class_assignment("C=C1C(=O)O[C@@H](CCCCCCCC)[C@@H]1C(=O)O [C-75] + CC(=O)c1c(C)c2cnc(Nc3ccc(N4CCNCC4)cn3)nc2n(C2CCCC2)c1=O [Palbociclib] (partner 0.5 µM)")
"middle bin"
>>> class_assignment("Oc1nc(-c2ccc(C(F)(F)F)cc2)nc2c1CSCC2 [XAV939] + COc1cc2c(Oc3ccc(NC(=O)C4(C(=O)Nc5ccc(F)cc5)CC4)cc3F)ccnc2cc1OCCCN1CCOCC1 [Foretinib] (partner 0.25 µM)")
"middle bin"
>>> class_assignment("Oc1nc(-c2ccc(C(F)(F)F)cc2)nc2c1CSCC2 [XAV939] + CC(=O)Nc1cccc(-n2c(=O)n(C3CC3)c(=O)c3c(Nc4ccc(I)cc4F)n(C)c(=O)c(C)c32)c1 [Trametinib] (partner 0.02 µM)")
"lower bin"

Q: # bin lookup: classify C=C1C(=O)O[C@@H](CCCCCCCC)[C@@H]1C(=O)O [C-75] + CC1(C)CCC(c2ccc(Cl)cc2)=C(CN2CCN(c3ccc(C(=O)NS(=O)(=O)c4ccc(N[C@H](CCN5CCOCC5)CSc5ccccc5)c(S(=O)(=O)C(F)(F)F)c4)cc3)CC2)C1 [Navitoclax] (partner 0.5 µM) by its relative viability
Result: upper bin

Q: Now give it for C=C1C(=O)O[C@@H](CCCCCCCC)[C@@H]1C(=O)O [C-75] + Cc1cc(Nc2cc(N3CCN(C)CC3)nc(Sc3ccc(NC(=O)C4CC4)cc3)n2)n[nH]1 [Tozasertib] (partner 0.1 µM) too.
Result: middle bin

Q: Now give it for Oc1nc(-c2ccc(C(F)(F)F)cc2)nc2c1CSCC2 [XAV939] + COc1cccc2cc(-c3nc([C@H]4CC[C@H](C(=O)O)CC4)n4ncnc(N)c34)[nH]c12 [OSI-027] (partner 0.5 µM) too.
Result: lower bin

---

Test system: LOU-NH91
Assay: relative viability (nuclei count vs DMSO), 5 days (fraction); higher = more cells survive
Conditions: first compound 0.1581 µM
measured-property: relative viability
Field format: numeric only.

Some molecules with recorded relative viability:
>>> recorded_number("CC1(C)CCC(c2ccc(Cl)cc2)=C(CN2CCN(c3ccc(C(=O)NS(=O)(=O)c4ccc(N[C@H](CCN5CCOCC5)CSc5ccccc5)c(S(=O)(=O)C(F)(F)F)c4)cc3)CC2)C1 [Navitoclax] + O=C(c1cc(Cc2n[nH]c(=O)c3ccccc23)ccc1F)N1CCN(C(=O)C2CC2)CC1 [Olaparib] (partner 8 µM)")
0.658
>>> recorded_number("CC1(C)CCC(c2ccc(Cl)cc2)=C(CN2CCN(c3ccc(C(=O)NS(=O)(=O)c4ccc(N[C@H](CCN5CCOCC5)CSc5ccccc5)c(S(=O)(=O)C(F)(F)F)c4)cc3)CC2)C1 [Navitoclax] + Cc1cc(Nc2cc(N3CCN(C)CC3)nc(Sc3ccc(NC(=O)C4CC4)cc3)n2)n[nH]1 [Tozasertib] (partner 0.1 µM)")
0.655

Switching to the query record.
Q: Can you look up relative viability on LOU-NH91 for CC1(C)CCC(c2ccc(Cl)cc2)=C(CN2CCN(c3ccc(C(=O)NS(=O)(=O)c4ccc(N[C@H](CCN5CCOCC5)CSc5ccccc5)c(S(=O)(=O)C(F)(F)F)c4)cc3)CC2)C1 [Navitoclax] + CS(=O)(=O)CCNCc1ccc(-c2ccc3ncnc(Nc4ccc(OCc5cccc(F)c5)c(Cl)c4)c3c2)o1 [Lapatinib] (partner 2 µM) ?
Result: 0.681
